Provenance of the data: patent US20170015742A1

target: T1, human VEGF-A (human, UniProt P15692-4 27-191, limits assumed); assay: SPR (Biacore), antibody captured by anti-human Fc, VEGF-A injected
T1 construct: also called huVEGF-A
T1 sequence (P15692 other isoform, or with tags, fused parts or gaps limits assumed): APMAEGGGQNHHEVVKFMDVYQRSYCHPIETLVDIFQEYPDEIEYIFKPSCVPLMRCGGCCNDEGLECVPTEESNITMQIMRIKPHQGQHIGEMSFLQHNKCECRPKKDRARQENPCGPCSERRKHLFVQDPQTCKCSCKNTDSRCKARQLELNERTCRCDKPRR
quantity kind: Kd (pM)
One number for each entry, in pM.

Example entries and their recorded answers appear below.
hBDB-4G8.11 (antibody, V domains shown, Humanized IgG made from pHybE vectors in HEK293 cells) VH: EIQLVQSGAEVKKPGASVKVSCKASGYTFTNYGMYWVRQAPGQGLEYMGWINTETGKPTYADDFKGRFTFTLDTSTSTAYMELRSLRSDDTAVYFCARTNYYYRSYIFYFDYWGQGTMVTVSS VL: ATQLTQSPSLSASVGDRVTITCRASESVSTHMHWYQQKPGKQPKLLIYGASNLESGVPSRFSGSGSGTDFTLTISSLQPEDFATYFCQQSWNDPFTFGQGTKLEIK | 1.3
hBEW-9A8.17 (antibody, V domains shown, Humanized IgG made from pHybE vectors in HEK293 cells) VH: EIQLVQSGSELKKPGASVKVSCKASGYTFTNYGMYWVKQAPGQGLEYMGWINTETGKPIYADDFKGRFVFSLDTSVSTAYLQISSLKAEDTAVYYCARVDYDGSFWFAYWGQGTLVTVSS VL: ETVLTQSPATLSLSPGERATLSCRASESVSTVIHWYQQKPGQQPRLLIHGASNLESGVPARFSGSGSGTDFTLTISSLEPEDFAVYFCQQHWNDPPTFGQGTKLEIK | 1.7

The record that follows has no Kd shown yet.
Exercise: Supply Kd value. Item: hBEW-1B10.1 (antibody, V domains shown, Humanized IgG made from pHybE vectors in HEK293 cells) VH: EVQLVESGGGLVQPGGSLRLSCAASGFSFSKYDMAWFRQAPGKGLEWVASITTSGVGTYYRDSVKGRFTVSRDNAKSTLYLQMNSLRAEDTAVYYCARGYGAMDAWGQGTTVTVSS VL: DIQMTQSPSSLSASVGDRVTITCKASQDIDDYLSWYQQKPGKSPKLVIYAATRLADGVPSRFSGSGSGTDYTLTISSLQPEDFATYYCLQSSSTPWTFGGGTKVEIK
Key: 18
